assay: Tmax in Sprague-Dawley rat at 3 mg/kg, po; format: ADME, organism-based; parameters: dose 3 mg/kg, route oral; settings: in vivo
RECORDED METRIC: Tmax
I'd appreciate it if you wrote the number followed by its unit.

stdin: // query Tmax value for entry CCCCc1nc(C)c(CC(=S)N(C)C)c(=O)n1Cc1ccc(-c2ccccc2-c2nnn[n-]2)cc1.O.O.O.[K+]
stdout: 6 min

###

test: Displacement of [125I]angiotensin 2 from angiotensin 2 receptor type 1 in Sprague-Dawley rat adrenal cortex membranes after 60 mins by gamma counting; type: cell membranes, Membrane
The reader will find reported pIC50 values listed item by item below.
Convention used: pIC50 is expressed as -log10 of the molar concentration.

Field: example entries. Status: answers known.
CCCCc1nc(C)c(CCC(=O)OCC)c(=O)n1Cc1ccc(-c2ccccc2-c2nnn[nH]2)cc1 : 6.88
CCCCc1nc(C)c(CC(=O)N2CCCC2)c(=O)n1Cc1ccc(-c2ccccc2-c2nnn[nH]2)cc1 : 7.23
CCCCc1nc(C)c(CCC(=O)N2CCC[C@H]2C(=O)OC)c(=O)n1Cc1ccc(-c2ccccc2-c2nnn[nH]2)cc1 : 7.23

stdin: Bench note: what pIC50 did CCCCc1nc(C)c(CC(=S)N2CCCCCC2)c(=O)n1Cc1ccc(-c2ccccc2-c2nnn[nH]2)cc1 show?
stdout: 8.09

stdin: Which pIC50 reading was recorded for the compound CCCCc1nc(C)c(CC(=O)N2CCCCC2)c(=O)n1Cc1ccc(-c2ccccc2-c2nnn[nH]2)cc1 ?
stdout: 7.20

###

Molecular target: Type-1 angiotensin II receptor (Oryctolagus cuniculus)
Sequence (P34976 whole entry): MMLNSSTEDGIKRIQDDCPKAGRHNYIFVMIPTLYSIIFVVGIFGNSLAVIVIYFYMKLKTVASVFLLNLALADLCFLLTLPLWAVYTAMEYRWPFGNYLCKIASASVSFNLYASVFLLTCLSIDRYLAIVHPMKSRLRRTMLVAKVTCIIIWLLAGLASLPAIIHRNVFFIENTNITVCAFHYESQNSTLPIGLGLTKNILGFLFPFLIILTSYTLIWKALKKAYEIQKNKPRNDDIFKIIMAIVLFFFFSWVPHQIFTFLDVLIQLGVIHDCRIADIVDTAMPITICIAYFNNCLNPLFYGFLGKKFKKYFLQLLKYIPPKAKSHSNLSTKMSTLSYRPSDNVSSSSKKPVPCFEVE
Assay: Antagonist activity at angiotensin 2 receptor type 1 in New Zealand White rabbit descending thoracic aorta rings assessed as inhibition of angiotensin 2-induced contraction preincubated for 30 mins prior angiotensin 2 challenge
RECORDED METRIC: log10 IC50 (log10 of the value in nM)
Please keep in mind that the values are log10 of IC50 expressed in nM.

CCCCc1nc(C)c(CCC(=O)OCC)c(=O)n1Cc1ccc(-c2ccccc2-c2nnn[nH]2)cc1 : 0.40
CCCc1nc(C)c(CC(=O)O)c(=O)n1Cc1ccc(-c2ccccc2-c2nnn[nH]2)cc1 : 1.43
CCCc1nc(C)c(CC(=O)N(CC)CC)c(=O)n1Cc1ccc(-c2ccccc2-c2nnn[nH]2)cc1 : 0.67

stdin: Dear colleague, I am looking for the recorded log10 IC50 of the following compound: CCCCc1nc(C)c(CC(=S)N(C)C)c(=O)n1Cc1ccc(-c2ccccc2-c2nnn[nH]2)cc1
stdout: -0.38

stdin: Return reported log10 IC50; argument: CCCCc1nc(C)c(CCC(=O)N2CC(C)OC(C)C2)c(=O)n1Cc1ccc(-c2ccccc2-c2nnn[nH]2)cc1 (stereo unspecified)
stdout: 1.12

stdin: Quick check: log10 IC50 of CCCCc1nc(C)c(CC(=O)N(CC)CC)c(=O)n1Cc1ccc(-c2ccccc2-c2nnn[nH]2)cc1 ?
stdout: 1.49
